- measured.target: Ubiquitin-activating enzyme e1, putative (Leishmania donovani (strain BPK282A1)) (UniProt E9BSI1)
- Sequence (E9BSI1 as listed by the source): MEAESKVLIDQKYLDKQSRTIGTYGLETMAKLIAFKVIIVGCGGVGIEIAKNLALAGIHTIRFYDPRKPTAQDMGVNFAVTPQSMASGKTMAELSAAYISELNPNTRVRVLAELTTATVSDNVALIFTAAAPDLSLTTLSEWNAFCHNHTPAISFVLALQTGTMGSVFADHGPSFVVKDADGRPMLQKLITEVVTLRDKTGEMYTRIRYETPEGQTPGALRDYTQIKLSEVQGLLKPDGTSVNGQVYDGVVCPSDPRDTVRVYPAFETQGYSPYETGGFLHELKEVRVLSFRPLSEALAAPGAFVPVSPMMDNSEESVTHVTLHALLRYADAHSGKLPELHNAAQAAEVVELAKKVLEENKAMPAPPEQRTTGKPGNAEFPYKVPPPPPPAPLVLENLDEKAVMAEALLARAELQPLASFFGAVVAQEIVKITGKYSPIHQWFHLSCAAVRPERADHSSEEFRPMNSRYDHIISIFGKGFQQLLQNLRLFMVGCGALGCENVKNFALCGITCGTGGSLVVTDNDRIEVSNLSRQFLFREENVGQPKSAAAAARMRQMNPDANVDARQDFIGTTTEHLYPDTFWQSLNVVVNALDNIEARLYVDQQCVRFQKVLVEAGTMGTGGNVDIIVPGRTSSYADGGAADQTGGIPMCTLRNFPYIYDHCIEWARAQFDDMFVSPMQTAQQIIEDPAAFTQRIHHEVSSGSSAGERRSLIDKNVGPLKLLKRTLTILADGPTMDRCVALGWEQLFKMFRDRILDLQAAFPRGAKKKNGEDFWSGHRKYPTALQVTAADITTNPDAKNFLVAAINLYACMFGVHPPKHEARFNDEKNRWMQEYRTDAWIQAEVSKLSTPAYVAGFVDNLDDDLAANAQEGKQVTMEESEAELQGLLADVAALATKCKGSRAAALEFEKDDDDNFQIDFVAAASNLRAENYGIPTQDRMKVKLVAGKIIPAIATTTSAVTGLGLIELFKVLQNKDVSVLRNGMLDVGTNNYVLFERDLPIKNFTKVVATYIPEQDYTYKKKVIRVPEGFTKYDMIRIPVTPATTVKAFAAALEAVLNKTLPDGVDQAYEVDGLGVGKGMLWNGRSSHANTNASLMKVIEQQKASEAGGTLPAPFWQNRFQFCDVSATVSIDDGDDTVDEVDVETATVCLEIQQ
- experimental.details: Leishmania donovani Ubiquitin Activating Enzyme (LdE1)
- Assay type: functional
- Parameters: scale not given: direction of the effect not stated beside the values
- condition.info: 30 µM
Results with a measured potency or affinity are listed apart.
metric.name: Percent Effect (%)
Answers are plain numbers, in %.

Answered examples (5):
O=C1N(Cc2cccnc2)CCC12CCCNC2 (stereo not given) | 16.9
CN1CCCC(Cc2cncc(Br)c2)CC1 (stereo not given) | 1.35
COCCN1CCC2(CCCN(c3ncccn3)C2)C1 (stereo not given) | 2.67
Cc1cccc(CN2CC[C@@H]3[C@@H]2CCN3C(=O)c2cnoc2C)n1 | 10.8
O=C1CC2(CCN(CC3CC3)C2)CN1c1cccnc1 (stereo not given) | 8.11

Could you report Percent Effect for every entry in the following list?
1. NC(=O)CN1CCCN(C(=O)Cc2ccc3ccccc3c2)CC1
2. c1cncc(OC[C@@H]2CC[C@H]3[C@H](CCN3Cc3cccs3)O2)c1
3. CC(=O)N1CCOCC2(CN(Cc3ccccn3)CCO2)C1 (stereo not given)
4. Cc1cccc(CN2C(=O)C[C@H]3[C@@H]2CCN3Cc2ccccn2)n1

A.
1. 0
2. 5.33
3. -2.67
4. 22.1
